Tested on: Candida albicans
Experiment: Antifungal activity against Candida albicans at 50 mg/disk after 5 days by agar disk diffusion method
Type: functional
ATTRIBUTE MEASURED: diameter of the inhibition zone (DIZ) (mm)
Provide the reading as a plain figure in mm.

>>> endpoint_value("CSc1nc2c(c(=O)[nH]1)C(c1ccc([N+](=O)[O-])cc1)C1=C(CC(C)(C)CC1=O)N2[C@@H]1OC[C@@H](O)[C@@H](O)[C@@H]1O (stereo partly specified)")
7
>>> endpoint_value("CSc1nc2c(c(=O)[nH]1)C(c1ccc([N+](=O)[O-])cc1)C1=C(CC(C)(C)CC1=O)N2[C@@H]1O[C@H](CO)[C@@H](O)[C@H](O)[C@H]1O (stereo partly specified)")
8
>>> endpoint_value("CC1(C)CC(=O)C2=C(C1)Nc1nc(N/N=C\\c3ccccc3)[nH]c(=O)c1C2c1ccc([N+](=O)[O-])cc1 (stereo unspecified)")
7
>>> endpoint_value("CSc1nc2c(c(=O)n1C)C(c1ccc([N+](=O)[O-])cc1)C1=C(CC(C)(C)CC1=O)N2 (stereo unspecified)")
8
>>> endpoint_value("CC1(C)CC(=O)C2=C(C1)Nc1nc3[nH]nc(-c4ccc(Cl)cc4)n3c(=O)c1C2c1ccc([N+](=O)[O-])cc1 (stereo unspecified)")
9

*Q* Form field: diameter of the inhibition zone (DIZ) recorded for CC1(C)CC(=O)C2=C(C1)Nc1nc(Nn3c(=O)c4cc5c(=O)n(Nc6nc7c(c(=O)[nH]6)C(c6ccc([N+](=O)[O-])cc6)C6=C(CC(C)(C)CC6=O)N7)c(=O)c5cc4c3=O)[nH]c(=O)c1C2c1ccc([N+](=O)[O-])cc1 (stereo unspecified) with Candida albicans (enter value)
*A* 13
